Where these numbers come from: ChEMBL document CHEMBL1201862

# Target entity: UniProt:P29990
# Sequence (P29990 2492-3391 limits assumed): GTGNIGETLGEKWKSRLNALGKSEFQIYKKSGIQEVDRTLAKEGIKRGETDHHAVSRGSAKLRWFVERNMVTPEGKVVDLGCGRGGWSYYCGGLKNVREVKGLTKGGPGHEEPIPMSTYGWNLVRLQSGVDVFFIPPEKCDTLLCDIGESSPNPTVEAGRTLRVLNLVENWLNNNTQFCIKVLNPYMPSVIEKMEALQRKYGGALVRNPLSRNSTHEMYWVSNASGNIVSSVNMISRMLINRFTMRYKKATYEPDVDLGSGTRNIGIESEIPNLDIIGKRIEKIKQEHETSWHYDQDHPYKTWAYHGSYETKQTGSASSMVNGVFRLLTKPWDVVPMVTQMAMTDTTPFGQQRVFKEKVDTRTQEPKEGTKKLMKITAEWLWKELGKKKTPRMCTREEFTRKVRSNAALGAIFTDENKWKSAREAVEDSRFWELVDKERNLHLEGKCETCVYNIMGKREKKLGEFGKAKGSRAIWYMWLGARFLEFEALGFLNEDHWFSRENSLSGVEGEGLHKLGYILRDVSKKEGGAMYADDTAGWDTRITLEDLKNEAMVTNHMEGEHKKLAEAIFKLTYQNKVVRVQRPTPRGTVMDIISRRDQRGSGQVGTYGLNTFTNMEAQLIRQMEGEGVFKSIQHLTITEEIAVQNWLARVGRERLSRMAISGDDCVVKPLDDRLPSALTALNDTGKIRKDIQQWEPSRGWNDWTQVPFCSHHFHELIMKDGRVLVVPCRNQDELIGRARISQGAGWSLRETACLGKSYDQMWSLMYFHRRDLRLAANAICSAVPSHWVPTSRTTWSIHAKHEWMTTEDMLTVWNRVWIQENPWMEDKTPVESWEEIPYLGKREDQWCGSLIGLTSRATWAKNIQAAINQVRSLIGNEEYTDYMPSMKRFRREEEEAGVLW
# Test: flavivirus cap methylation enzyme inhibition – biochemical, confirmation dose response, primary screen (AID 588689)
# Type: functional
Activity calls are given as the source filed them. No rule for the calls is given here.
Measured metric: IC50

Solved entries (count: 6):
Compound	IC50
O=C(O)c1ccccc1NS(=O)(=O)c1ccc(NNC(=S)Nc2ccc(OC(F)F)cc2)c([N+](=O)[O-])c1	18.5 µM (active)
C/C(CC(c1ccccc1)c1c(O)oc2ccccc2c1=O)=N\Nc1ccc([N+](=O)[O-])cc1[N+](=O)[O-] (configuration not stated)	94.4 µM (active)
CN1C(=O)C(=Cc2ccccc2Oc2ccc(Cl)c(F)c2)C(=O)N(C)C1=O	51.9 µM (active)
O=C(O)CN1C(=O)/C(=C\c2cccc(OCc3ccc(Cl)cc3Cl)c2)SC1=S	36 µM (active)
Cc1ccc(NC(=O)C(=Cc2ccc(C(=O)O)cc2)C(=O)Nc2ccc(C)cc2C)c(C)c1	> 100 µM (active)
COc1ccccc1N(O)C1CC(=O)N(c2ccc(Br)cc2)C1=O (configuration not stated)	34.7 µM (active)

# ---- query compound ----
Problem: What does the record list as IC50 for Cc1ccc(S(=O)(=O)ON2C(=O)c3ccccc3C2=O)c(C)c1 ?
Solution: 96.3 µM (active)
